Give measured AUCinf/dose for each item. Keep answers brief.
test-conditions: i.v., mice
# output: bare number, implied unit kg·ng·h/mL/mg

What value of measured AUCinf/dose is listed for CCCn1c(C)c(C(=O)c2cccc3ccccc23)c2ccccc21 ?
158

I am curious: what AUCinf/dose value has been reported for Cc1ccc2c(c1)Cc1c(C(=O)NN3CCCCC3)nn(-c3ccc(Cl)cc3Cl)c1-2 ?
412

# AUCinf/dose lookup, item COc1ccc(C(=O)c2c(C)n(CCN3CCOCC3)c3cc(I)ccc23)cc1
197

May I ask what AUCinf/dose has been recorded for CCCCCCC(C)(C)c1cc(OC)c(C2=C[C@H]3CC[C@]2(CO)C3(C)C)c(OC)c1 ?
6060

Quick check: AUCinf/dose of CCCC(C)(C)c1ccc2c(c1)OC(C)(C)[C@@H]1CC=C(C)C[C@@H]21 ?
1090

Consider the compound shown here: CN1CCCC[C@H]1Cn1cc(C(=O)c2cc([N+](=O)[O-])ccc2I)c2ccccc21 [(S)-AM1241] What is its recorded AUCinf/dose?
145

---

Would you mind telling me the reported GTPγS-cAMP bias factor (BF) of each entry?
study-system: UniProt:P47936
Sequence (P47936 whole entry): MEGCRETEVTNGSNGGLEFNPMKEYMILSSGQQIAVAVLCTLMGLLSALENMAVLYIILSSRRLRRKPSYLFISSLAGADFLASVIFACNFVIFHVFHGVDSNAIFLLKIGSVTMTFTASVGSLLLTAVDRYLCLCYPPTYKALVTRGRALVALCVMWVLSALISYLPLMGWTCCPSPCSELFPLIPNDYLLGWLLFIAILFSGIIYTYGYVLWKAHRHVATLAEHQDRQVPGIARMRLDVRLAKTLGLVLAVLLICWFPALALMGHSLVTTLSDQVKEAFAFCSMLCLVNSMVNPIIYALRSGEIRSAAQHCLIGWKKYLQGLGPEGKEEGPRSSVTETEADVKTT
method-summary: Operational analysis of biased signalling

Data request, read-out GTPγS-cAMP bias factor (BF), for CCCCCCC(C)(C)c1cc(OC)c([C@@H]2C=C(CO)[C@@H]3C[C@H]2C3(C)C)c(OC)c1
25.8

What value of measured GTPγS-cAMP bias factor (BF) is listed for CCCC(C)(C)c1ccc2c(c1)OC(C)(C)[C@@H]1CC=C(C)C[C@@H]21 ?
50.9

Can you share its GTPγS-cAMP bias factor (BF)? I mean this compound: CCCCCCC(C)(C)c1cc(OC)c(C2=C[C@H]3CC[C@]2(CO)C3(C)C)c(OC)c1
23.6

Given CCCCCCC(C)(C)c1ccc([C@@H]2C[C@H](O)CC[C@H]2CCCO)c(O)c1 , state its recorded GTPγS-cAMP bias factor (BF).
1

---

study-system: hCB2R (Homo sapiens, UniProt P34972)
Sequence (P34972 whole entry): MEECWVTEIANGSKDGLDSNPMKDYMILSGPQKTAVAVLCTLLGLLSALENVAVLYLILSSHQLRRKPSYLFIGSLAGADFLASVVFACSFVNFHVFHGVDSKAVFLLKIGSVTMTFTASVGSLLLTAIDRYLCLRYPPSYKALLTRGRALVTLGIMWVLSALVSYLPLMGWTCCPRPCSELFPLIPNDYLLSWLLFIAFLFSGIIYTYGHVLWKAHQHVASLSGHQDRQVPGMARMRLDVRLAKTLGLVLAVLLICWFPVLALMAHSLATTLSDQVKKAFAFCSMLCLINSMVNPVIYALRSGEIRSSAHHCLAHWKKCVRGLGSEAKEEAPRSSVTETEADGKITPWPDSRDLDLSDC
Set-up: expressed in transfected cells; host or cells: Flp-In-293 (Invitrogen #R750-07), pcDNA5/FRT
test-conditions: hCB2R
Short version: pERK-GTPγS bias factor (BF) at least 6 is fulfilled, less is not fulfilled.

Please check the record CN1CCCC[C@@H]1Cn1cc(C(=O)c2cc([N+](=O)[O-])ccc2I)c2ccccc21 [(R)-AM1241] and state if its pERK-GTPγS bias factor (BF) is at or above 6.
not fulfilled

Answer whether pERK-GTPγS bias factor (BF) of CN1CCCC[C@H]1Cn1cc(C(=O)c2cc([N+](=O)[O-])ccc2I)c2ccccc21 [(S)-AM1241] is greater than or equal to 6.
not fulfilled

Would you say CN1CCCCC1Cn1cc(C(=O)c2cc([N+](=O)[O-])ccc2I)c2ccccc21 (racemic) [(rac)-AM1241] shows pERK-GTPγS bias factor (BF) at minimum 6?
fulfilled

Hello, I need to know if CCCCCCC(C)(C)c1cc(OC)c([C@@H]2C=C(CO)[C@@H]3C[C@H]2C3(C)C)c(OC)c1 has measured pERK-GTPγS bias factor (BF) not below 6. Thanks!
not fulfilled

Could you please find out whether CCCCCCC(C)(C)c1cc(OC)c(C2=C[C@H]3CC[C@]2(CO)C3(C)C)c(OC)c1 has pERK-GTPγS bias factor (BF) that meets 6 or exceeds it?
not fulfilled

Determine whether this compound has pERK-GTPγS bias factor (BF) no lower than 6: CCCCC/C=C\C/C=C\C/C=C\C/C=C\CCCC(=O)NCCO [Anandamide, N-arachidonoylethanolamine]
not fulfilled

Determine whether this compound has pERK-GTPγS bias factor (BF) no lower than 6: CCCCC/C=C\C/C=C\C/C=C\C/C=C\CCCC(=O)OC(CO)CO
fulfilled

---

study-system: hCB2R (Homo sapiens)
method-summary: cell-based
Format: cell-based
Design: expressed in transfected cells; host or cells: Flp-In-293 (Invitrogen #R750-07), pcDNA5/FRT
outcome-measure: pEC50 ± SEM cAMP hCB2R
Number only, no unit.

Return reported pEC50 ± SEM cAMP hCB2R; argument: CN1CCCC[C@H]1Cn1cc(C(=O)c2cc([N+](=O)[O-])ccc2I)c2ccccc21 [(S)-AM1241]
7.40

pEC50 ± SEM cAMP hCB2R for CCCC(C)(C)c1ccc2c(c1)OC(C)(C)[C@@H]1CC=C(C)C[C@@H]21 ?
8.38

Returns the measured pEC50 ± SEM cAMP hCB2R for the input molecule. Input: CN1CCCC[C@@H]1Cn1cc(C(=O)c2cc([N+](=O)[O-])ccc2I)c2ccccc21 [(R)-AM1241]
8.76

What value of pEC50 ± SEM cAMP hCB2R has been recorded for this entry: CN1CCCCC1Cn1cc(C(=O)c2cc([N+](=O)[O-])ccc2I)c2ccccc21 (racemic) [(rac)-AM1241]
8.49

Give the measured pEC50 ± SEM cAMP hCB2R of COc1ccc(C(=O)c2c(C)n(CCN3CCOCC3)c3cc(I)ccc23)cc1 .
7.56

---

study-system: mCB1R (Mus musculus, UniProt P47746)
Construct: from tissue; host or cells: brain of male C57BL/6J mice
Sequence (P47746 whole entry): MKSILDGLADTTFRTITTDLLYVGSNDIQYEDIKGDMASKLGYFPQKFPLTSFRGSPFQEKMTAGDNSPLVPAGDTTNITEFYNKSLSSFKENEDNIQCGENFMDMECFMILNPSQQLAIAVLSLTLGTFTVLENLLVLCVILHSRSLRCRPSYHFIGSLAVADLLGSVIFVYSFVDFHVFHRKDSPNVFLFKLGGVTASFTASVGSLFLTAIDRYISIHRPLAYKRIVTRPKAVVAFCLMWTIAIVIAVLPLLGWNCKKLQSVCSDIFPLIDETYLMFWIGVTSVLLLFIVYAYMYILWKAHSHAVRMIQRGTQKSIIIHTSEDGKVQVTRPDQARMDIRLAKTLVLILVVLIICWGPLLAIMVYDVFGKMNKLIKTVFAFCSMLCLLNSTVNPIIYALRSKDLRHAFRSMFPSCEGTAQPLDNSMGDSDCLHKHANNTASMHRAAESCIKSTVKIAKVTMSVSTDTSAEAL
method-summary: biochemical
test-conditions: pEC50 ± SEM cAMP mCB1R
outcome-measure: EC50 (nM)
The reply should be a number in nM, with the unit left off.

Can you look up the measured EC50 of CCCCCCC(C)(C)c1ccc([C@@H]2C[C@H](O)CC[C@H]2CCCO)c(O)c1 [CP55940] for me?
0.00603

What measured EC50 goes with CCCCCCC(C)(C)c1cc(O)c2c(c1)OC(C)(C)[C@@H]1CC=C(CO)C[C@@H]21 [HU210] ?
0.0933

---

Would you mind telling me the reported % inhibition A1 (h) of each entry?
study-system: A1 (h) (Homo sapiens, UniProt P30542)
Construct: CEREP
Sequence (P30542 whole entry): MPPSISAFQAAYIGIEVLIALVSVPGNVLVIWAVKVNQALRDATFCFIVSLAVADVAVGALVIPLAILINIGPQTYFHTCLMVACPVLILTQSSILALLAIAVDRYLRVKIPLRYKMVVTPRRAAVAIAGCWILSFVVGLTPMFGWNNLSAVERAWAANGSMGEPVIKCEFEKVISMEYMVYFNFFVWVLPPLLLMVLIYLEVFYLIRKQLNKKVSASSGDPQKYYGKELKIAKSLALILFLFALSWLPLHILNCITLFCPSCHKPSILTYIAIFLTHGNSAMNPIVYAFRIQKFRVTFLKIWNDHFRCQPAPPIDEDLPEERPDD
method-summary: CEREP panel
Type: binding
test-conditions: 10 µM
# output: bare number, implied unit %

Under A1 (h) (Homo sapiens, UniProt P30542): % inhibition A1 (h) value of CN1CCCC[C@H]1Cn1cc(C(=O)c2cc([N+](=O)[O-])ccc2I)c2ccccc21 [(S)-AM1241] ?
14

Give recorded % inhibition A1 (h) with A1 (h) (Homo sapiens, UniProt P30542) for the following compound: CCCCCCC(C)(C)c1cc(OC)c(C2=C[C@H]3CC[C@]2(CO)C3(C)C)c(OC)c1
23

// lookup % inhibition A1 (h) | system=A1 (h) (Homo sapiens, UniProt P30542) | key= COc1ccc(C(=O)c2c(C)n(CCN3CCOCC3)c3cc(I)ccc23)cc1
28

Enter reported % inhibition A1 (h) observed with A1 (h) (Homo sapiens, UniProt P30542) for Cc1c(C(=O)c2cccc3ccccc23)c2cccc3c2n1[C@H](CN1CCOCC1)CO3
10

Could you share what % inhibition A1 (h) was measured for Cc1c(C(=O)NN2CCCCC2)nn(-c2ccc(Cl)cc2Cl)c1-c1ccc(I)cc1 , tested on A1 (h) (Homo sapiens, UniProt P30542)?
27

Write down the reported % inhibition A1 (h) of CCCn1c(C)c(C(=O)c2cccc3ccccc23)c2ccccc21 , test system: A1 (h) (Homo sapiens, UniProt P30542).
10

Give A1 (h) (Homo sapiens, UniProt P30542) % inhibition A1 (h) for CCCC(C)(C)c1ccc2c(c1)OC(C)(C)[C@@H]1CC=C(C)C[C@@H]21
-6

Lab note: need % inhibition A1 (h) with A1 (h) (Homo sapiens, UniProt P30542) for entry Cc1ccc2c(c1)Cc1c(C(=O)NN3CCCCC3)nn(-c3ccc(Cl)cc3Cl)c1-2 , please look it up.
25

---

study-system: Rat recombinant TRPA1 (Rattus norvegicus, UniProt Q6RI86)
Sequence (Q6RI86 whole entry): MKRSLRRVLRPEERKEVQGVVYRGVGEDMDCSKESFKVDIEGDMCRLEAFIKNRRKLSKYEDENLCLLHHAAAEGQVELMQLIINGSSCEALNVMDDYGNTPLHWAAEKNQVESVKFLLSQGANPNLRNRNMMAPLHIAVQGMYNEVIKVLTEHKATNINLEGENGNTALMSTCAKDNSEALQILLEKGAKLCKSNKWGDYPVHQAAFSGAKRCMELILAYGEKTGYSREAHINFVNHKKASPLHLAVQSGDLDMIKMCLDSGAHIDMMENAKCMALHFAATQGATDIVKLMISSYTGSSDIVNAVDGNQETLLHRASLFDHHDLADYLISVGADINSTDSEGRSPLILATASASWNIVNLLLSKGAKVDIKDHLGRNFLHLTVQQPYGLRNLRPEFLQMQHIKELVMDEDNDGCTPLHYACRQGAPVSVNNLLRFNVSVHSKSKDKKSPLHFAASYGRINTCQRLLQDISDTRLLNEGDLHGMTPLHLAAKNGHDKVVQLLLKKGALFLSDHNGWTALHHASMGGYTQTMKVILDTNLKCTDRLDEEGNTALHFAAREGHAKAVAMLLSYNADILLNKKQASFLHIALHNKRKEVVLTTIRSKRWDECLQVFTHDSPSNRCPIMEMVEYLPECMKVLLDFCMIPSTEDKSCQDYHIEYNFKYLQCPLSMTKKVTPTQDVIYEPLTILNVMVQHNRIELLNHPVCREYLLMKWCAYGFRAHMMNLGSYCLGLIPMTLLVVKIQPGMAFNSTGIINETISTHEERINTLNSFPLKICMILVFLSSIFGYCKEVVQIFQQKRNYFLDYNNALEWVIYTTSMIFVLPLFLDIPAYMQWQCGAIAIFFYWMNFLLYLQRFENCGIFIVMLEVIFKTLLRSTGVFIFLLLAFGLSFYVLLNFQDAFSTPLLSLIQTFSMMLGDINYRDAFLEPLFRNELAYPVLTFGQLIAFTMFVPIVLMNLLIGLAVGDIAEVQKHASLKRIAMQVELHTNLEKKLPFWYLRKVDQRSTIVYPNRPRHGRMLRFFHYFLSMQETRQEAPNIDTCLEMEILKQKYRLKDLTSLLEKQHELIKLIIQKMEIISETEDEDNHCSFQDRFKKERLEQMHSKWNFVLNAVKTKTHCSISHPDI
method-summary: cell-based
test-conditions: read-out: TRPA1 Potency EC50
Exercise: for every item that follows, state its recorded EC50.
Please reply with the bare figure in µM and do not write the unit itself.

EC50 for CCCCCCC(C)(C)c1cc(OC)c(C2=C[C@H]3CC[C@]2(CO)C3(C)C)c(OC)c1 ?
53.1

What does the record list as EC50 for CCCC(C)(C)c1ccc2c(c1)OC(C)(C)[C@@H]1CC=C(C)C[C@@H]21 ?
8.5

Sample CN1CCCC[C@H]1Cn1cc(C(=O)c2cc([N+](=O)[O-])ccc2I)c2ccccc21 [(S)-AM1241] — what was its EC50?
5.8

Requested field: EC50. Item: COc1ccc(C(=O)c2c(C)n(CCN3CCOCC3)c3cc(I)ccc23)cc1
1.9

Reported EC50, compound CCCCCCC(C)(C)c1cc(OC)c([C@@H]2C=C(CO)[C@@H]3C[C@H]2C3(C)C)c(OC)c1 : ____
18.5

Endpoint output: EC50 of Cc1c(C(=O)c2cccc3ccccc23)c2cccc3c2n1[C@H](CN1CCOCC1)CO3 . Value?
2.3

Entry Cc1c(C(=O)NN2CCCCC2)nn(-c2ccc(Cl)cc2Cl)c1-c1ccc(Cl)cc1 [SR141716A] has what EC50?
1.9

// lookup EC50 for CN1CCCC[C@@H]1Cn1cc(C(=O)c2cc([N+](=O)[O-])ccc2I)c2ccccc21 [(R)-AM1241]
19.5

Report EC50 for Cc1ccc2c(c1)Cc1c(C(=O)NN3CCCCC3)nn(-c3ccc(Cl)cc3Cl)c1-2 please.
2.1
